test system: HCI03 (cells of an ER-positive luminal breast cancer xenograft); experiment: cell viability (% of vehicle); higher = less cytotoxic; details: 10 µM; 72 h;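 also: PDX cells carrying CMV promoter-driven luciferase, viability read as total photon flux per second by IVIS imaging following D-luciferin, vehicle control 0.1% DMSO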
Below: a set of entries, each annotated with reported cell viability.
Number, no unit, nothing else.

Worked examples follow.
- Compound: "COc1ccc2cccc(CCNC(C)=O)c2c1"
  cell viability: 139
- Compound: "CCCC(=O)[O-].[Na+] [Sodium butyrate]"
  cell viability: 85.5
- Compound: "CN1CCCC1c1cccnc1.O=C(O)C(O)C(O)C(=O)O.O=C(O)C(O)C(O)C(=O)O (configuration not stated) [Nicotine Difartrate]"
  cell viability: 107
- Compound: "Nc1[nH]c(=O)ncc1F"
  cell viability: 137

Inquiry: cell viability lookup needed for NC(=O)N1c2ccccc2CC(=O)c2ccccc21 [Oxcarbazepine] , thanks.
Reply text: 133

Inquiry: cell viability lookup needed for O=C(NCC(O)CO)c1ccncc1Nc1ccc(I)cc1F (configuration not stated) , thanks.
Reply text: 72.9

Inquiry: cell viability lookup needed for CCOc1nc2cccc(C(=O)OC(C)OC(=O)OC3CCCCC3)c2n1Cc1ccc(-c2ccccc2-c2nn[nH]n2)cc1 (configuration not stated) , thanks.
Reply text: 94.5

Reference for the values: the supplement of paper PMC6992640
